Test system: MS2 coat protein
Assay explanation: apparent KD of MS2 coat protein; designed switch direction (-1 OFF switch, 1 ON switch): -1; higher = weaker reporter binding
Experimental setup: Eterna round: R95; input ligand: microRNA oligo, concentration not stated
Exercise: state measured apparent KD of MS2 coat protein for each of the sequences provided.
One number for each entry, in µM.

Look over these answered cases.
Record sequence | Study target | Result type | Measurement units | Test result
GGUUAUUGCAAGGAUAUGCUUUUUUUUGAAAUUGCAGAAGGUGCAACAUGAGGAUCACCCAUGUUGGAUGGGUU [JR_E6_Sub018] (puzzle: Exclusion 6) | MS2 coat protein | apparent KD of MS2 coat protein | µM | 0.106
GUAGAGUAAGGAUAUACUGAAUAGGAUAGAAUGGUUAGAAAGUAGAAGGUACAUGAGGAUCACCCAUGUAAUGU [Excluse me!!!! 19 - Jieux - Exclusion 4] (puzzle: Exclusion 4) | MS2 coat protein | apparent KD of MS2 coat protein | µM | 0.0204
UUUAAUUUUUUUUUUUUACAAGCUUUUUGCUCGUCUUAUACAUGAGGAUCACCCAUGUGGGUGAGGGAUAAAUUAUC [JMF 42] (puzzle: Sensor v3, turn-off variant 2) | MS2 coat protein | apparent KD of MS2 coat protein | µM | 0.0272
AGCAUCUGAGGAUAUACUGGGUAUGGAAGGCGAAGGGCCAGACAUGAGGAUCACCCAUGUAGAAGGCAGUUUGC [Esenonan] (puzzle: Exclusion 2) | MS2 coat protein | apparent KD of MS2 coat protein | µM | 0.0784
AGAAAGCAAGGAUAUACAAGGAAACGACGGAAAGUAGAGAGACAUGAGGAUCACCCAUGUAGAAGGUGCGAGAG [JR_Exclu2_Sub033] (puzzle: Exclusion 2) | MS2 coat protein | apparent KD of MS2 coat protein | µM | 0.0245

Report apparent KD of MS2 coat protein for each item below.
1. GGAUAGUGAGGAUAUCGAUGUUAGGAGGAUGAGGUAGGAUGCGAGAAGGCACAUGAGGAUCACCCAUGUAUGGU [JR_Exclu4_Sub070] (puzzle: Exclusion 4)
2. GAUUAUGCGAGCUUUAGGGACAUGAGGAUCACCCAUGUUCGUCUUAUUGGUCUAGAUGCACUGACAUACCUAAAUCU [JMF 79] (puzzle: Sensor v3, turn-off variant 1)
3. AUACUCUUUGUGAGGAUAUCGUUUUCUUUACGGUUCGAGAAGGCACAUGAGGAUCACCCAUGUUUGACGUGAAU [JR_BMOE4_Sub094] (puzzle: Brourd's mod of Exclusion 4)
4. UAGAUGGCUCAGGAUAUUUGCCAACUAACCCGCAAAGAAGGGAGCACAUGAGGAUCACCCAUGUGAUCGAACAA [Xeortibeza] (puzzle: Exclusion 6)
5. CCCUCACAUGAGGAUCACCCAUGUCAGGAUAUUCAGGUCACGCAAAAGCGGUUCCAAAGGAGAAGGGACAUCAA [Cequusso] (puzzle: Exclusion 1)
6. CUCUUGUCAGGAUAUCUAAGCCACCUCCGGGCGGCCGAAUUAGAGAAGGGACAUGAGGAUCACCCAUGUAAAAG [Qumabi] (puzzle: Exclusion 4)

OUTPUT:
1. 0.0384
2. 0.0191
3. 0.0212
4. 0.0226
5. 0.0242
6. 0.138

###

Test system: MS2 coat protein
Assay explanation: apparent KD of MS2 coat protein; designed switch direction (-1 OFF switch, 1 ON switch): -1; higher = weaker reporter binding
Experimental setup: input ligand: microRNA oligo, concentration not stated
For each entry below, report its apparent KD of MS2 coat protein value.
Numbers only, in nM.

Here are 6 sequences together with their reported answers.
Record sequence | Measurement units | apparent KD of MS2 coat protein
GCAUAUGAUGUAGGAUAUGCGAGACAUGAGGAUCACCCAUGUGAGGGAAGGAGAAGGAGAAGAGAGUAGAAGGAUAGAGUGUGA [Default title] (Eterna round: R96, puzzle: Exclusion NG 2) | nM | 85.3
AGACAUGAGGAUCACCCAUGUAGUGGUCCUGGUACGCGAACGUAGGAUAUAUACUGGAUUCCAAUGUAGAAGGACGACACCGCG [Tetege] (Eterna round: R96, puzzle: Exclusion NG 3) | nM | 112
AACAGGACAGGAUAUACAUGAGGAUCACCCAUGUAGGAAACAAGCAGAGUACCAAAAAGUAGAAGGGUCAUGGA [Ruby 30] (Eterna round: R96, puzzle: Exclusion 3) | nM | 53.6
UGUCCACAUUCCGAUACGGGACAUGAGGAUCACCCAUGUCCACAGGAUAUCGUCUUACGAGAGAUCGAGAAGGGUGGCGUGCGC [Eternabot solution 22] (Eterna round: R96, puzzle: Exclusion NG 3) | nM | 9.72
CAGUACUGAGGAUAUACAUGAGGAUCACCCAUGUGUUCCAGCUAGGAAACUAGCAAAGGUAGAAGGCAGUACUG [salish99_ex3_r3_065] (Eterna round: R96, puzzle: Exclusion 3) | nM | 23.2
UUAAUUAAUUAAGCGCAAGAUCACAUGAGGAUCACCCAUGUAUAGGAUAUCAGCUCGUGUAGAGCUGAGAAGGAUACAUAGCGC [ExNG3/2-A3] (Eterna round: R96, puzzle: Exclusion NG 3) | nM | 184

For every item in the list below, what is its measured apparent KD of MS2 coat protein?
1. AUUGUAUGGGAAGGAUAUAGAAUAUUAUUUUAACAUGAGGAUCACCCAUGUAACCUUAUGUGUAGCUAGAAGGUCCGUUUAUUA [Title] (Eterna round: R96, puzzle: Exclusion NG 2)
2. AAGAUGCGGGUAGGAUAUGGAGAGAAAGAAAGACCAGAAGGAUUGGUCACACAACAUGAGGAUCACCCAUGUGUGUGUUGCGAA [EX ng 1 6.1] (Eterna round: R96, puzzle: Exclusion NG 1)
3. UUUUUGUCAGGAUAUGCAUGUUUUUUUUUUUUUUUUUUCAUGCAGAAGGGACAUGAGGAUCACCCAUGUAGUUU [Ex4 - 3 - 10] (Eterna round: R96, puzzle: Exclusion 4)
4. AUUAUAUAGACAGGAUAUUGAUUAUUAUUUUAACAUGAGGAUCACCCAUGUAGCCUUAUGUAUAGCAAGAAGGGUCAUUUAUUA [Title] (Eterna round: R96, puzzle: Exclusion NG 2)

OUTPUT:
1: 112; 2: 9.22; 3: 61.7; 4: 122

###

Please provide measured apparent KD of MS2 coat protein for the entries that follow.
Test system: MS2 coat protein
Assay explanation: apparent KD of MS2 coat protein; designed switch direction (-1 OFF switch, 1 ON switch): -1; higher = weaker reporter binding
Experimental setup: Eterna round: R95; input ligand: microRNA oligo, concentration not stated
Answers are plain numbers, in nM.

Examples with their reported apparent KD of MS2 coat protein follow.
Record sequence | apparent KD of MS2 coat protein (nM)
UUUAAUUUUUUUUUUUUACAAGCUUUUUGCUCGUCUUAUACAUGAGGAUCACCCAUGUAAAUGAGGGAUAAAUUAUC [JMF 38] (puzzle: Sensor v3, turn-off variant 2) | 21.3
GUAUGUAACUAGGAUAUCAGCAUACUUCAAUGUUGAGAAGGAGUUACAUGAGGAUCACCCAUGUAUCCAACAUG [Exclusion 6 - 3:b] (puzzle: Exclusion 6) | 52.5

INPUT: Suppose we examine the sequence GAUUAUGCGAGCUUUAGGGACAUGAGGAUCACCCAUGUUCGUCUUAUUGGUCUGGGUACGCUAACAUACCUAAAUCU [JMF 5] (puzzle: Sensor v3, turn-off variant 1) ; what apparent KD of MS2 coat protein value has been reported?
OUTPUT: 46.7

###

Tested on: MS2 coat protein
Assay explanation: apparent KD of MS2 coat protein; designed switch direction (-1 OFF switch, 1 ON switch): -1; higher = weaker reporter binding
Experimental setup: input ligand: none
Lab note: anything with apparent KD of MS2 coat protein at or over 70 nM counts as TRUE; the rest go in FALSE.

INPUT: Could you verify whether the entry UUUUAGUCAGGAUAUACAUGAGGAUCACCCAUGUAAAAUUUUAAUUUAAUUUUAAGGUGUAGAAGGGACAAUAA [Ex3 #8] (Eterna round: R97, puzzle: Exclusion 3) shows apparent KD of MS2 coat protein of no less than 70 nM?
OUTPUT: FALSE

###

System: MS2 coat protein
Assay explanation: apparent KD of MS2 coat protein; designed switch direction (-1 OFF switch, 1 ON switch): -1; higher = weaker reporter binding
Experimental setup: input ligand: none
Outcome label depends on apparent KD of MS2 coat protein relative to 20 nM: at/above gives 1 (yes), below gives 0 (no).

Record sequence | Study target | Class label
AGAGACAAUCUAGGAUAUGUGUAUGAAGAGUGCGCAGAAGGAGACAUGAGGAUCACCCAUGUACAGCGACAGAAGACGACAACC [Matt's Exclusion 2] (Eterna round: R96, puzzle: Exclusion NG 1) | MS2 coat protein | 0 (no)
UAUUAGCAAGCGAGAUCCCACAUGAGGAUCACCCAUGUGCUCGUCUUAUAAAAGACUGUGACGAGAGUCACGGUCAC [Mat - Sensor, turn-off var - Eli Mod - D23] (Eterna round: R97, puzzle: Sensor, turn-off variant 1) | MS2 coat protein | 0 (no)
UUCUUUACACGAGGAUAUCAUACAUGAGGAUCACCCAUGUUGCUUUGUCUGUUUUUAUGUAUUAUUGAGAAGGCGUUUUUCUUU [JR_ExcNG2_Sub076] (Eterna round: R96, puzzle: Exclusion NG 2) | MS2 coat protein | 1 (yes)

INPUT: For this sequence, is measured apparent KD of MS2 coat protein 20 nM or higher? AGUACUAUCACGAAAGUGAUAGUACGAGGAGCAAGUGGAACAUGAGGAUCACCCAUGUCCUCAUCUGCUCGUCUUAU [salish99-s2-v2-x008] (Eterna round: R96, puzzle: Sensor v2, turn-off variant 2)
OUTPUT: 0 (no)

INPUT: Please do the same for UGAGUGCUGCGAGGAUAUACAUGAGGAUCACCCAUGUAAAAGUGUGAGGCUUUGCCUCACACUAUGUAGAAGGCGCAGUACUCU [JL ENG2 1.04] (Eterna round: R96, puzzle: Exclusion NG 2) as well.
OUTPUT: 0 (no)

INPUT: # repeat for AGCUGUGGCCGAGGAUAUGACAUGAGGAUCACCCAUGUACAUGAUUAGGCCUGGUAACAGGCUCGUCAGAAGGCGGUCUCAGCA [Eli eng2 - 009] (Eterna round: R96, puzzle: Exclusion NG 2)
OUTPUT: 0 (no)

INPUT: Now give it for UUUUUAUAUGAAGGAUAUACUUAACAUGAGGAUCACCCAUGUGGUGUUGUGAGUGAGUGAGUUUAGUAGAAGGUCAAGUAUUAU [JMF's solution 38] (Eterna round: R96, puzzle: Exclusion NG 2) too.
OUTPUT: 1 (yes)

INPUT: Same thing, different sequence: GGCUGCAAUGUAGGAUAUCUGCACGAUUAGUGCAGAGAAGGACAUGAGGAUCACCCAUGUAUAGUAGCUUCGGCUACAGCAGCC [ENG1-D1] (Eterna round: R96, puzzle: Exclusion NG 1)
OUTPUT: 0 (no)

INPUT: Another sequence to check: CUUAGACAUGAGGAUCACCCAUGUGAGGAUAUGAUGCGAUCGUGCUGACAUGAUCGCAUCAGAAGGCACAUAUG [JL-ex1-01 Hyphema Mod2] (Eterna round: R96, puzzle: Exclusion 1)
OUTPUT: 1 (yes)
